Measured protein stability index by item
B1: CDC25A (parent)
chain: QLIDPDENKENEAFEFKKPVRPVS

- Variants of: B1
- protocol: protein stability index of a GFP-peptide fusion (GPS, HEK-293T) (PSI 1-6); higher = more stable;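 note: lentivirally expressed fusions sorted by FACS into six bins by GFP to DsRed ratio, PSI derived from sequencing read proportions per bin multiplied by bin number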
- experimentalContext: c terminus: a fixed tail appended
Give the figure by itself; no unit, no explanation.

Below, 5 variants whose answers are already recorded.
{"columns": ["sequenceVariant", "protein stability index"],
 "data": [
  ["A13W", 3.02],
  ["E15F", 3.41],
  ["K9S", 4.39],
  ["P22S", 4.05],
  ["K17M", 3.03]
]}

Annotate the variant `E10G` with its measured protein stability index. 4.33
